Attribution: ChEMBL document CHEMBL5338729

Test: Inhibition of RING1B-BMI1 (unknown origin)
Parameters: species or system Homo sapiens
pIC50: −log10 of the molar value.
Observed Property: pIC50

A. CCc1c(-c2cccc3[nH]ccc23)[nH]c(C(=O)O)c1-c1ccccc1Cl
B. CC(C)c1c(-c2cccc3[nH]ccc23)[nH]c(C(=O)O)c1-c1c(Cl)ccc2[nH]ccc12
For the two items A and B , which reports the higher pIC50 value? Mark your answer with the label of the selected entry. B
(B: 5.80, A: 4.92)

---

// endpoint Ki / system UniProt Q96SW2
Sequence (Q96SW2 whole entry): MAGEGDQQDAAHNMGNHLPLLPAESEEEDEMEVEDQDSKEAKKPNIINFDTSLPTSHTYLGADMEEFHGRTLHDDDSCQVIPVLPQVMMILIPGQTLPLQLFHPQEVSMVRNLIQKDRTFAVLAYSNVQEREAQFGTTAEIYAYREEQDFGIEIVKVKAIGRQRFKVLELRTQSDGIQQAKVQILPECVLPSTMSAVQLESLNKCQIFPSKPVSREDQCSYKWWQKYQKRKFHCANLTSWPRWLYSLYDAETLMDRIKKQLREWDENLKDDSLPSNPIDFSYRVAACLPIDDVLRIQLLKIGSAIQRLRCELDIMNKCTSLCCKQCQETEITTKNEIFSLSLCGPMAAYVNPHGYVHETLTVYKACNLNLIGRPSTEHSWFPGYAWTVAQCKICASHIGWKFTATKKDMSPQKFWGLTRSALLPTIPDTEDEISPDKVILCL
Observed Property: Ki (µM)

a. O=C1CCCCN1
b. O=C1CCC(=O)N1 [SUCCINIMIDE]
c. CC(=O)NC(N)=O
Put the items above in order of decreasing Ki. Please list the labels according to the requested order. c, a, b
(c: 522 µM, a: 146 µM, b: 4.3 µM)

---

Target: von Hippel-Lindau disease tumor suppressor (Homo sapiens)
Sequence (P40337 whole entry): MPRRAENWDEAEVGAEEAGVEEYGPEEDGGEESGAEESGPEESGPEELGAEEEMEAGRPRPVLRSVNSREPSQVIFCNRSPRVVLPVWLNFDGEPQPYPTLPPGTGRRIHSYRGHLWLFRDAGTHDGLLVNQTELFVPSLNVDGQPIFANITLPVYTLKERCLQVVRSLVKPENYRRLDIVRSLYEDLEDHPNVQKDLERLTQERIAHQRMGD
Observed Property: Kd (mM)
Number only, in mM; omit the unit.

Supply recorded Kd for O=C1CCSc2ccc(Cl)cc21 here. 6.7
